Measured values drawn from patent US20260034230A1 for this set.

Tested On: T1, REGN2431 (hmm.hTfRC): monomeric human Tfrc ectodomain (C89-F760) with N-terminal hexahistidine-myc-myc tag (human, UniProt P02786 89-760)
T1 construct: also called hmm.hTfR(C89-F763); hTFR-mmh
T1 sequence (P02786 other isoform, or with tags, fused parts or gaps): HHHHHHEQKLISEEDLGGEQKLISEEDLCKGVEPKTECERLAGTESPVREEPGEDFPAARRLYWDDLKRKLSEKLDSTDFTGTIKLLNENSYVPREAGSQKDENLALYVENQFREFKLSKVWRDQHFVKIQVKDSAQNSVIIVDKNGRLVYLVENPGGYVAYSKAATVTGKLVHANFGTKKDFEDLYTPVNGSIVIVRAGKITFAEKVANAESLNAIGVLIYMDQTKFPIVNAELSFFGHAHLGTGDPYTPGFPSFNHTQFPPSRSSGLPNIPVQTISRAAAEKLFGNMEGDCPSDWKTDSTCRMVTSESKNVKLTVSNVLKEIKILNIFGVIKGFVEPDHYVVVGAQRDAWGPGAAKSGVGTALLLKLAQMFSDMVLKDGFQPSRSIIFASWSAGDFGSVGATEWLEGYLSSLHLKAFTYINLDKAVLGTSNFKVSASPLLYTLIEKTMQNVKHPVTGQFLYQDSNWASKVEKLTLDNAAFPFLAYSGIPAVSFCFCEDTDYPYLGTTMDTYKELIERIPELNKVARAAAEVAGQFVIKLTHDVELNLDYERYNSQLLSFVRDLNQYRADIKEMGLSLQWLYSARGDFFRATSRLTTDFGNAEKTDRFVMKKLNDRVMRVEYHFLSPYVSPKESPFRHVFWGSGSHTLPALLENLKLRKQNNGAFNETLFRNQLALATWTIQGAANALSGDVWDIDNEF
Test Summary: SPR Biacore, IgG captured by anti-hFc, 25 C
Attribute Measured: t1/2 (h)

Binder | Attribute Measured | Qualifier | Reported Measurement
31863B anti-hTfR monoclonal antibody (bivalent IgG1) (antibody, V domains shown, hIgG1/kappa) VH: EVQLVESGGGLVQPGGSLRLSCAASGFTFNSYAMTWVRQAPGKGLEWVSFIGGSTGNTYYAGSVKGRFTISSDNSKKTLYLQMNSLRAEDTAVYYCAKGGAARRMEYFQHWGQGTLVTVSS VL: DIQMTQSPSSLSASIGDRVTITCRASQGISNYLAWYQQKPGKVPKLLIYAASTLQSGVPSRFSGSGSGTDFTLTISSLQPEDVATYYCQNHNSVPLTFGGGTKVEIKR | t1/2 | > | 19.2
12808B anti-hTfR monoclonal antibody (bivalent IgG1) (antibody, V domains shown, hIgG1/kappa) VH: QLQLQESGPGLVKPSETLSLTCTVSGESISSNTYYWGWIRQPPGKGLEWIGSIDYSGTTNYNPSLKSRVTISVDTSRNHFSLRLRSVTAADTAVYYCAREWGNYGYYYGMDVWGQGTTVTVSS VL: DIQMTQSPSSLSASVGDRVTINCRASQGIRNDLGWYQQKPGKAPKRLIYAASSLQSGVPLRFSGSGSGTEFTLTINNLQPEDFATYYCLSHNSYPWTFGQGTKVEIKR | t1/2 | = | 1.81
69263 anti-hTfR monoclonal antibody (bivalent IgG1) (antibody, V domains shown, hIgG1/kappa) VH: EVQLVESGGGLVQPGRSLRLSCAVSGFTFDDYAMHWVRQAPGKGLEWVSGISWNSGTRGYADSVKGRFTISRDNAKNSLYLQMNSLRGEDTALYYCVKDITISPNYYGMDVWGQGTTVTVSS VL: DIQMTQSPSSLSASVGDRVTITCRASQDISHYSAWYQQKPGKLPNLLIYAASTLQSGVPSRFSGSGSGTDFSLTTSSLQPEDVATYYCQKYNSVPLTFGGGTKVEIKR | t1/2 | = | 0.167
69329 anti-hTfR monoclonal antibody (bivalent IgG1) (antibody, V domains shown, hIgG1/kappa) VH: EVQLVESGGGLVQPGGSLRLSCAASGFTFSNYWMTWVRQAPGKGLEWVANIKEDGSEKDYVDSVKGRFTISRDNAKNSLYLQMNSLRGEDTAVYYCARDGEQLVDYYYYYVMDVWGQGTTVTVSS VL: DIQMTQSPSSVSASVGDRVTITCRASQGISSWLAWYQQKPGKAPKLLIYAASSLQSGVPSRFSGSGSGTDFTLTISSLQPEDFATYYCQKANSFPYTFGQGTKLEIKR | t1/2 | = | 1.04
12802B anti-hTfR monoclonal antibody (bivalent IgG1) (antibody, V domains shown, hIgG1/kappa) VH: QVQLVESGGGLVKPGGSLRLSCAASGFTFSDYFMSWIRQAPGKGLEWVSYISSTGSTINYADSVKGRFTISRDNVKNSLYLQMTSLRVEDTAVYYCTRDNWNYEYWGQGTLVTVSS VL: EIVMTQSPATLSVSPGERATLSCRASQSVSINLAWYQQKPGQAPRLLIFVASTRATGIPARFSGSGSGTEFTLTISSLQSEDFATYYCQQYDIWPYTFGQGTKLEIKR | t1/2 | = | 6.59
